target: Human MGAT-2 (Homo sapiens (Human), UniProt Q3SYC2); assay: MGAT LCMS Assay; settings: recombinant MGAT-2 membranes expressed in Sf9 cells; 100 μM 2-oleoylglycerol, 15 μM oleoyl-Coenzyme A; LC/MS of diolein; read-out: h-MGAT LCMS IC50
Sequence (Q3SYC2 whole entry): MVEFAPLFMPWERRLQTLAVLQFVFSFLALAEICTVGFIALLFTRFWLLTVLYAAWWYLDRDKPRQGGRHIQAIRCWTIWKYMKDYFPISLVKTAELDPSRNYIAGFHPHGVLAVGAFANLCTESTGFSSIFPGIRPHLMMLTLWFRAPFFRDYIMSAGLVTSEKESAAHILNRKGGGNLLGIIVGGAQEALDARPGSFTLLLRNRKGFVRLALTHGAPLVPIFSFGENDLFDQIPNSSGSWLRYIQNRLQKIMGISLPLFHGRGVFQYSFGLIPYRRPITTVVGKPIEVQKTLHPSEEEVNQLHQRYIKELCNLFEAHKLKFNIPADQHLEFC
measured property: IC50 (nM)

Sample records with IC50:
- chemical string: "O=C1N[C@@](c2ccc(CCCCC(F)(F)F)cc2F)(C(F)(F)F)CC(c2ccn(CC3CC3)n2)=C1C(=O)NS(=O)(=O)C1CC1"
  result value: 10
- chemical string: "CC(C)Cn1ccc(C2=C(C(=O)NS(=O)(=O)C3CC3)C(=O)N[C@@](c3ccc(OCCCC(F)(F)F)cc3F)(C(F)(F)F)C2)n1"
  result value: 62
- chemical string: "COc1ccc(C2=C(C(=O)NS(C)(=O)=O)C(=O)N[C@@](c3ccc(OCCCCCC(F)(F)F)cc3F)(C(F)(F)F)C2)cc1"
  result value: 52

[I] Cc1ccc(C2=C(C(=O)NS(=O)(=O)C3CC3)C(=O)N[C@@](c3ccc(OCCCC(F)(F)F)cc3Cl)(C(F)(F)F)C2)cc1
[II] Cc1ccc(C2=C(C(=O)NS(C)(=O)=O)C(=O)N[C@@](c3ccc(OCCCCCC(F)(F)F)cc3)(C(F)(F)F)C2)cc1
Query block: Looking at I and II , which one comes out lower in IC50 terms? // output: label of the selected item
Result block: I
(I: 9 nM, II: 16 nM)

* * *

target: UniProt:Q3SYC2; test: MGAT LCMS Assay; settings: recombinant MGAT-2 membranes expressed in Sf9 cells; 100 μM 2-oleoylglycerol, 15 μM oleoyl-Coenzyme A; LC/MS of diolein; read-out: h-MGAT LCMS IC50
pIC50: −log10 of the molar value.
measured property: pIC50

- chemical string: "CC(C)(C)c1ccc(C2=C(C(=O)NS(C)(=O)=O)C(=O)N[C@](C)(c3ccc(OCCCC(F)(F)F)cc3)C2)cc1"
  pIC50: 7.57
- chemical string: "O=C1N[C@@](c2ccc(OCCCC(F)(F)F)cc2F)(C(F)(F)F)CC(c2ccn(CC3CCC3)n2)=C1C(=O)NS(=O)(=O)C1CC1"
  pIC50: 7.43

[a] O=C1N[C@@](c2ccc(OCCCC(F)(F)F)cc2)(C(F)(F)F)CC(c2ccn(C3CC3)n2)=C1C(=O)NS(=O)(=O)C1CC1
[b] [2H]C1([2H])C(c2ccc(OC)cc2)=C(C(=O)NS(=O)(=O)C2CC2)C(=O)N[C@@]1(c1ccc(OCCCCCC(F)(F)F)cc1F)C(F)(F)F
Query block: Hello, I am sorting some records. Could you say if a or b has the smaller pIC50 value? I would appreciate it if you answered with the label of your choice.
Result block: a

[1] O=C1N[C@@](c2ccc(OCCCCCC(F)(F)F)cc2)(C(F)(F)F)CC(c2ccn(CC3CC3)n2)=C1C(=O)NS(=O)(=O)C1CC1
[2] CCn1ccc(C2=C(C(=O)NS(=O)(=O)C3CC3)C(=O)N[C@@](c3ccc(CCCCC(F)(F)F)cc3F)(C(F)(F)F)C2)n1
Query block: Task for the reader: decide whether 1 or 2 has the larger pIC50. Field: selected label. Fill in the label of the entry you choose.
Result block: 1

[1] O=C1N[C@@](c2ccc(OCCCC(F)(F)F)cc2)(C(F)(F)F)CC(c2ccn(CC3CC3)n2)=C1C(=O)NS(=O)(=O)C1CC1
[2] CCS(=O)(=O)NC(=O)C1=C(c2ccc(C)cc2)C[C@](c2ccc(OCCCC(F)(F)F)cc2)(C(F)(F)F)NC1=O
Query block: Thinking about recorded pIC50 values, which is higher, 1 or 2 ? Write down the label attached to your selection.
Result block: 2
(2: 7.77, 1: 7.17)

[1] CCOc1ccc(C2=C(C(=O)NS(C)(=O)=O)C(=O)N[C@@](c3ccc(OCCCC(F)(F)F)cc3F)(C(F)(F)F)C2)cc1
[2] O=C1N[C@@](c2ccc(OCCCC(F)(F)F)cc2F)(C(F)(F)F)CC(c2ccn(CC3CC3)n2)=C1C(=O)NS(=O)(=O)C1CC1
Query block: Kindly identify which of 1 and 2 has the larger recorded pIC50 value. Indicate your choice by writing its label.
Result block: 2
(2: 7.89, 1: 7.38)

* * *

biological target: Human MGAT-2 (Homo sapiens (Human)); test: MGAT LCMS Assay; conditions: recombinant MGAT-2 membranes expressed in Sf9 cells; 100 μM 2-oleoylglycerol, 15 μM oleoyl-Coenzyme A; LC/MS of diolein; read-out: h-MGAT LCMS IC50
pIC50: −log10 of the molar value.
measured property: pIC50

Here's what some known entries look like.
- chemical string: "CC(C)(C)c1ccc(C2=C(C(=O)NS(C)(=O)=O)C(=O)N[C@@](c3ccc(OCCCC(F)(F)F)cc3)(C(F)(F)F)C2)cc1"
  measured property: "pIC50"
  result value: 7.72
- chemical string: "O=C1N[C@@](c2ccc(OCCCCC(F)(F)F)cc2)(C(F)(F)F)CC(c2ccc(C3CC3)s2)=C1C(=O)NS(=O)(=O)C1CC1"
  measured property: "pIC50"
  result value: 8.10
- chemical string: "CS(=O)(=O)NC(=O)C1=C(c2ccc(C3CC3)cc2)C[C@](c2ccc(OCCCCCC(F)(F)F)cc2F)(C(F)(F)F)NC1=O"
  measured property: "pIC50"
  result value: 9.00
- chemical string: "CCCCCCC#C[C@]1(C(F)(F)F)CC(c2ccc(C)cc2)=C(C(=O)NS(C)(=O)=O)C(=O)N1"
  measured property: "pIC50"
  result value: 8.40
- chemical string: "O=C1N[C@@](c2ccc(OCCCC(F)(F)F)cc2F)(C(F)(F)F)CC(c2ccn(C3CCC3)n2)=C1C(=O)NS(=O)(=O)C1CC1"
  measured property: "pIC50"
  result value: 7.77

[A] CCCCCCCc1cnc([C@]2(C(F)(F)F)CC(c3ccc(C)cc3)=C(C(=O)NS(=O)(=O)C3CC3)C(=O)N2)s1
[B] Cc1ccc(C2=C(C(=O)NS(=O)(=O)c3ccccc3)C(=O)N[C@@](c3ccc(OCCCC(F)(F)F)cc3)(C(F)(F)F)C2)cc1
[C] Cc1ccc(C2=C(C(=O)NS(=O)(=O)C3CC3)C(=O)N[C@@](c3cnn(CCCCCC(F)(F)F)c3)(C(F)(F)F)C2)cc1
[D] C[C@@]1(c2ccc(OCCCC(F)(F)F)cc2)CC(c2ccn(CC3CC3)n2)=C(C(=O)NS(=O)(=O)C2CC2)C(=O)N1
Query block: Provide the items ranked by increasing pIC50. Would you mind listing the labels in the order requested?
Result block: C, B, D, A
